Measured values drawn from PubChem BioAssay AID1259418 for this set.

The compounds listed here are annotated with their max activity.
Assay: inhibitors of Toxoplasma growth in IFN-γ-primed HeLa – cell-based, ME49Luc, luciferase, 72 h, dose response (AID 1259418)
Details: T. gondii ME49Luc in IFN-y HeLa, stronger effect = lower value, -100% = high-dose IFN-γ control wells; at 19.5 µM unless noted
The whole screen tested about 3,400 compounds, of which about 840 (25%) were called active. Not shown: some 11% with an inconclusive outcome. These entries were drawn from the full list. Potency and affinity values are given separately.

>>> meas_value("N#C[C@H]1[C@H](c2ccc(C#Cc3ccccc3F)cc2)[C@@H](CO)N1C(=O)c1cccnc1")
"-13.1% [at 2.35 µM] (inactive)"
>>> meas_value("CCN1CCCC1CNC(=O)C1CCN(Cc2cc3ccccc3n2Cc2ccccc2C)CC1 (stereo not given)")
"14% [at 2.6 µM] (inactive)"
>>> meas_value("CCc1nc(OCC(=O)Nc2ccc(C(C)C)cc2)c2ccccc2n1")
"25.6% [at 10 µM] (inactive)"
>>> meas_value("CCOc1ccc(NC(=O)Nc2ccc(-c3nc(-c4ccc(C)cc4)co3)cc2)cc1")
"62.7% (inactive)"
>>> meas_value("COc1cccc(CC(=O)N2CCC[C@@H]2C(=O)NCCc2csc(-c3ccccc3)n2)c1")
"18.6% [at 0.16 µM] (inactive)"

Problem: Return value of max activity for input "O=C(Nc1ccc(-c2nc(-c3ccccc3)co2)cc1)Nc1ccc(F)cc1F" , no commentary.
Result: 65.6% (inactive)

###

Assay: inhibitors of Toxoplasma growth in IFN-γ-primed HeLa – cell-based, ME49Luc, luciferase, 72 h, dose response (AID 1259418)
Settings: T. gondii ME49Luc in IFN-y HeLa, stronger effect = lower value, -100% = high-dose IFN-γ control wells; at 19.5 µM unless noted
The campaign covered roughly 3,400 compounds. About 840 (25%) were called active. About 11% were inconclusive and are not listed. A selection follows. Entries with a potency or affinity are not part of this list.
measure.name: max activity

>>> meas_value("CCOc1ccc(-c2nc3c(s2)CN(S(=O)(=O)c2cc(C)cc(C)c2)CC3)cc1")
"-12.1% [at 2.6 µM] (inactive)"

Problem: Return max activity for the following compound: "O=C(Cc1ccc(F)cc1)Nc1ccc(-c2nc(-c3ccccc3)co2)cc1"
Result: 4.13% [at 5 µM] (inactive)

Problem: Note down max activity recorded for "Cc1cccc(-c2nc(Cn3nnc(-c4nc(-c5cccc(Cl)c5)no4)c3C)c(C)o2)c1"
Result: 8.17% [at 2.6 µM] (inactive)

Problem: Look up max activity of "CCc1ccccc1NC(=O)N1CCN(Cc2nc(-c3ccc(C)cc3)oc2C)CC1" and report it.
Result: 29.1% [at 10 µM] (inactive)

Problem: Provide one value: measured max activity of COc1cccc(-c2ccc(C3[C@H]4CNC[C@@H]3N4Cc3nccs3)cc2)c1 (stereo not given in full)
Result: 51.8% [at 21 µM] (inactive)

###

Assay: inhibitors of Toxoplasma growth in IFN-γ-primed HeLa – cell-based, ME49Luc, luciferase, 72 h, dose response (AID 1259418)
Details: T. gondii ME49Luc in IFN-y HeLa, stronger effect = lower value, -100% = high-dose IFN-γ control wells; at 19.5 µM unless noted
Screen size: about 3,400 compounds; about 840 (25%) were called active. Inconclusive results (about 11%) are left out. Not all results are given here. Potency and affinity values are given separately.
Known max activity of a selection of compounds

A selection of reference data follows.
>>> meas_value("Cc1ccc(S(=O)(=O)N2CCC3(CC2)OC(C(=O)N(C)C)Cn2ccnc23)cc1 (stereo not given)")
"40.3% (inactive)"
>>> meas_value("Cc1nc(OCC(=O)Nc2cccc(C(F)(F)F)c2)c2ccccc2n1")
"-11.8% [at 2.6 µM] (inactive)"
>>> meas_value("CCOc1ccc(CC(=O)N2CCC3(CC2)Nc2ccc(C)c(C)c2-n2cccc23)cc1OCC")
"-7.59% [at 0.35 µM] (inactive)"
>>> meas_value("c1cnc(N2CCC(Oc3cnccn3)CC2)nc1")
"28.4% [at 10 µM] (inactive)"

Consider the record given below.
Problem: Write down max activity measured for item "COc1ccc(C(=O)N2CCC3(CC2)Nc2ccc(C)c(C)c2-n2cccc23)cc1"
Result: 7.01% [at 0.68 µM] (inactive)
